Test system: SK-MEL-5 melanoma
Assay: NCI-60 one-dose screen, 48 h (100 = growth as untreated, 0 = no growth, -100 = all killed)
Settings: 10 µM unless noted
The panel holds about 83,000 compounds, 20% with a hit somewhere; the sample as a whole holds those more often.
Consider the following compounds; for each one, report its growth.
Answer with a number only, understood to be in %.

In: For the compound O=C(CCc1nnc2sc(-c3ccc(Cl)cc3Cl)nn12)c1nc2ccccc2[nH]1 , report growth.
Out: -70.2

In: For the compound Nc1cc(Cl)c(S(N)(=O)=O)cc1S(N)(=O)=O , report growth.
Out: 102

In: For the compound CCC1=C(c2ccc(OC)cc2)C(C)(C)Oc2c1ccc(O)c2CN1CCCC1 , report growth.
Out: -97.6

In: For the compound Cn1cc(-c2csc(-c3cn(C)c4ncccc34)n2)c2cccnc21 , report growth.
Out: 84.9

In: For the compound COC(=O)CC1=C(C)/C(=C/c2[nH]c(-c3ccc[nH]3)cc2OC)N=C1C , report growth.
Out: -92.8

In: For the compound C=Cc1nn2c(CCC(=O)c3nc4ccccc4[nH]3)nnc2s1 , report growth.
Out: 98.2

In: For the compound c1ccc(-c2nn[nH]n2)c(-c2ccc(CN3CCN(c4nsc5ccccc45)CC3)cc2)c1 , report growth.
Out: 97.2

In: For the compound CCOC(=O)c1c(C)c(C(=O)OCC)n(C)c1C , report growth.
Out: 126

In: For the compound NNC(=O)NO , report growth.
Out: 105

In: For the compound CCN(CC)c1ccc(CN(CC(=O)c2ccc(Cl)c(Cl)c2)Cc2ccccc2)cc1 , report growth.
Out: 97.9

In: For the compound Cc1c(C(N)=O)sc2c1c(=O)n(Cc1ccccc1)c1nnc(SCC(=O)Nc3ccc(Cl)cc3)n21 , report growth.
Out: 51.8

In: For the compound Cn1c(=O)c2c(nc(Br)n2CCC(=O)Nc2ccc(F)cc2)n(C)c1=O , report growth.
Out: 111

In: For the compound Cc1cc(=O)n2n1-c1ccc(Cl)cc1NC(=O)C2 , report growth.
Out: 97.5

In: For the compound CC(NC(=O)C(C)Oc1ccc(Cl)cc1Cl)C(=O)O (stereo unspecified) , report growth.
Out: 101

In: For the compound C[N+]1(CCC[N+]2(C)C[C@@H]3[C@H](C2)[C@@H]2C=C[C@H]3C2)CCOCC1 (stereo partly specified) , report growth.
Out: 106

In: For the compound COc1ccc(C2CC(c3ccc(OC)c(OC)c3)=NN2C(=O)c2cc(OC)c(OC)c(OC)c2)cc1 (stereo unspecified) , report growth.
Out: 5.8

In: For the compound C[n+]1ccc(C#N)c2ccccc21 , report growth.
Out: 99.1

In: For the compound COc1ccc(-c2cc(C(=O)Nc3nc4cc(C)c(C)cc4s3)nc3cc(-c4ccccc4)nn23)cc1OC , report growth.
Out: 110

In: For the compound O=C(N1CCC(CN=c2cc3n(-c4ccc(Cl)cc4)c4ccccc4nc-3cc2Nc2ccc(Cl)cc2)CC1)N1CC1 , report growth.
Out: -97.6

In: For the compound Cc1cc2c(C#N)n3c(c2cc1C)C(=O)C(c1ccccc1)Oc1ccccc1-3 (stereo unspecified) , report growth.
Out: 22.7

In: For the compound Clc1ccc2c(Nc3ccc4oc(NCCN5CCCC5)nc4c3)ccnc2c1 , report growth.
Out: 99.1
